Target: T1, hCD137 (FXa digested) (human, UniProt Q07011 24-186)
T1 construct: Factor Xa digestion and Protein A removed the Fc; also called human CD137 extracellular domain
T1 sequence (Q07011 other isoform, or with tags, fused parts or gaps limits assumed): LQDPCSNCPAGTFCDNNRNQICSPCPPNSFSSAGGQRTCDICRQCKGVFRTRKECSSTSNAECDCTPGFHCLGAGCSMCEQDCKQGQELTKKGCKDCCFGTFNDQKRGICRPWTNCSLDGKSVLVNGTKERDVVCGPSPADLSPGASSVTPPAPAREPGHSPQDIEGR
Experiment: SPR, 100 uM ADP
Let's look at some binders and their measured binding amount.
valueKind: binding amount (RU)

# binder, reading
data = [
    ("dBBAT021-P253 (antibody, human IgG1, lambda, V domains shown) VH: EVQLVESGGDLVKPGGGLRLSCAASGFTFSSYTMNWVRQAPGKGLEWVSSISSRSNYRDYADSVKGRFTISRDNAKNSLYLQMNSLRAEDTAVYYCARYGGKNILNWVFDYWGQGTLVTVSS VL: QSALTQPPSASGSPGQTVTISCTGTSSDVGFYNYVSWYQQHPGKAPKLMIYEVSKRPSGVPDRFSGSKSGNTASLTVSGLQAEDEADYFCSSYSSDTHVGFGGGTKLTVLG", 56.6),
    ("dBBAT119-P253 (antibody, human IgG1, lambda, V domains shown, also called dBBAT119H-P253/dBBAT119L-LamLib) VH: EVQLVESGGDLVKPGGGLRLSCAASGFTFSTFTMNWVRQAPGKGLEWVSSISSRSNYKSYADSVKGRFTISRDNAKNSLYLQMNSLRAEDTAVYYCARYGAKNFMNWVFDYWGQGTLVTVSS VL: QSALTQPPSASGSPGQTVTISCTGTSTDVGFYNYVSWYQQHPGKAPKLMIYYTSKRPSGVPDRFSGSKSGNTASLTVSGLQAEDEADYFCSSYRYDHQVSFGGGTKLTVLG", 112),
]
